# TEST SUMMARY: Drug level Sprague-Dawley rat brain at 10 mg/kg, sc after 0.5 hrs
# Type: ADME, organism-based
# Parameters: dose 10 mg/kg, route subcutaneous
# TEST SETTINGS: read-out: Drug uptake
READOUT KIND: concentration at 0.5 h (ng/mL)
# unit: ng/mL | format: bare number

Reported concentration at 0.5 h of OCC1(N2CCC(n3c(N4CC5CNCC5C4)nc4ccccc43)CC2)CCCCCCC1 (stereo unspecified) : 152
